assayMethodText: In vivo oral bioavailability assay in rats
settings: male, Sprague-Dawley, plasma; rat, oral administration 60 mg/kg
valueKind: AUC(0-inf)
Numeric answer plus unit only.

Lookup: Reported AUC(0-inf), molecule CO[C@H]1C[C@H]2OC[C@@]2(OC(C)=O)[C@H]2[C@H](OC(=O)c3ccccc3)[C@]34OC(=O)O[C@H]3[C@H](OC(=O)[C@H](O)[C@@H](NC(=O)OC(C)(C)C)c3ccccc3)C(C)=C([C@@H](OC(=O)N(C)C)C(=O)[C@]12C)C4(C)C [PCMI-08] : ____
Found: 32000 ng·h/mL

###

assayMethodText: In vivo oral bioavailability assay in rats
settings: male, Sprague-Dawley, plasma; rat, oral administration 60 mg/kg; read-out: MRT0-∞
valueKind: MRT inf (h)
Unit h implied. Number only.

Lookup: Reported MRT inf, molecule CO[C@H]1C[C@H]2OC[C@@]2(OC(C)=O)[C@H]2[C@H](OC(=O)c3ccccc3)[C@]34OC(=O)O[C@H]3[C@H](OC(=O)[C@H](O)[C@@H](NC(=O)OC(C)(C)C)c3ccccc3)C(C)=C([C@@H](OC(=O)N(C)C)C(=O)[C@]12C)C4(C)C [PCMI-08] : ____
Found: 15.2

###

assayMethodText: Caco-2 cell monolayer membrane transport assay (Papp and recovery)
Format: in vitro ADME
settings: human, Caco-2, Caco-2, A-B, Mean; read-out: Recovery rate in mass, Mean
valueKind: recovery (%)
Unit % implied. Number only.

>>> recordedresult("CO[C@H]1C[C@H]2OC[C@@]2(OC(C)=O)[C@H]2[C@H](OC(=O)c3ccccc3)[C@]34OC(=O)O[C@H]3[C@H](OC(=O)[C@H](O)[C@H](CC(C)C)NC(=O)OC(C)(C)C)C(C)=C([C@@H](OC(=O)N(C)C)C(=O)[C@]12C)C4(C)C")
37.3

Lookup: Reported recovery, compound "CO[C@H]1C(=O)[C@]2(C)[C@@H](OC(=O)N(C)C)C[C@H]3OC[C@@]3(OC(C)=O)[C@H]2[C@H](OC(=O)c2ccccc2)[C@]23OC(=O)O[C@H]2[C@H](OC(=O)[C@H](O)[C@@H](NC(=O)OC(C)(C)C)c2ccccc2)C(C)=C1C3(C)C" : ____
Found: 91.3

###

Tested on: HT-29 colon cancer
assayMethodText: MTT proliferation inhibition, HT-29
Format: cell-based
settings: Homo sapiens, HT-29, read-out: Proliferation inhibition rate, HT29 Colon cancer
valueKind: inhibition at 1 µM (%)
Unit % implied. Number only.

>>> recordedresult("CO[C@H]1C[C@H]2OC[C@@]2(OC(C)=O)[C@H]2[C@H](OC(=O)c3ccccc3)[C@]34OC(=O)O[C@H]3[C@H](OC(=O)[C@H](O)[C@@H](NC(=O)OC(C)(C)C)c3ccccc3)C(C)=C([C@@H](OC(=O)N(C)C)C(=O)[C@]12C)C4(C)C [PCMI-08]")
81.7
>>> recordedresult("CO[C@H]1C(=O)[C@@]2(C)[C@H]([C@H](OC(=O)c3ccccc3)[C@]34OC(=O)O[C@H]3[C@H](OC(=O)[C@H](O)[C@@H](NC(=O)OC(C)(C)C)c3ccccc3)C(C)=C1C4(C)C)[C@]1(OC(C)=O)CO[C@@H]1C[C@@H]2O [PCMI-06]")
87.3
>>> recordedresult("COC(=O)O[C@H]1C(=O)[C@]2(C)[C@@H](OC)C[C@H]3OC[C@@]3(OC(C)=O)[C@H]2[C@H](OC(=O)c2ccccc2)[C@]23OC(=O)O[C@H]2[C@H](OC(=O)[C@H](O)[C@@H](NC(=O)OC(C)(C)C)c2ccccc2)C(C)=C1C3(C)C [PCMI-12]")
85.4

Here is another molecule to look at.
Lookup: Reported inhibition at 1 µM, molecule CCSC(=O)O[C@H]1C(=O)[C@]2(C)[C@@H](OC)C[C@H]3OC[C@@]3(OC(C)=O)[C@H]2[C@H](OC(=O)c2ccccc2)[C@]23OC(=O)O[C@H]2[C@H](OC(=O)[C@H](O)[C@@H](NC(=O)OC(C)(C)C)c2ccccc2)C(C)=C1C3(C)C [PCMI-13] : ____
Found: 87.4

###

assayMethodText: Caco-2 bidirectional transport, efflux ratio
settings: human, Caco-2
compounds and their reported Papp B→A
Numeric answer plus unit only.

>>> recordedresult("CO[C@H]1C(=O)[C@]2(C)[C@@H](OC)C[C@H]3OC[C@@]3(OC(C)=O)[C@H]2[C@H](OC(=O)c2ccccc2)[C@]23OC(=O)O[C@H]2[C@H](OC(=O)[C@H](O)[C@@H](NC(=O)N(C)C)c2ccccc2)C(C)=C1C3(C)C")
"28.6 ×10⁻⁶ cm/s"
>>> recordedresult("CO[C@H]1C(=O)[C@]2(C)[C@@H](OC(=O)N(C)C)C[C@H]3OC[C@@]3(OC(C)=O)[C@H]2[C@H](OC(=O)c2ccccc2)[C@]23OC(=O)O[C@H]2[C@H](OC(=O)[C@H](O)[C@@H](NC(=O)OC(C)(C)C)c2ccccc2)C(C)=C1C3(C)C")
"19 ×10⁻⁶ cm/s"
>>> recordedresult("CO[C@H]1C[C@H]2OC[C@@]2(OC(C)=O)[C@H]2[C@H](OC(=O)c3ccccc3)[C@]34OC(=O)O[C@H]3[C@H](OC(=O)[C@H](O)[C@@H](NC(=O)OC(C)(C)C)c3ccccn3)C(C)=C([C@@H](OC(=O)N(C)C)C(=O)[C@]12C)C4(C)C")
"29 ×10⁻⁶ cm/s"
>>> recordedresult("CO[C@H]1C(=O)[C@]2(C)[C@@H](OC)C[C@H]3OC[C@@]3(OC(C)=O)[C@H]2[C@H](OC(=O)c2ccccc2)[C@]23OC(=O)O[C@H]2[C@H](OC(=O)[C@H](O)[C@@H](NC(=O)OC(C)(C)C)c2ccccn2)C(C)=C1C3(C)C")
"26.4 ×10⁻⁶ cm/s"
>>> recordedresult("COC(=O)O[C@H]1C[C@H]2OC[C@@]2(OC(C)=O)[C@H]2[C@H](OC(=O)c3ccccc3)[C@]34OC(=O)O[C@H]3[C@H](OC(=O)[C@H](O)[C@@H](NC(=O)OC(C)(C)C)c3ccccc3)C(C)=C([C@@H](OC)C(=O)[C@]12C)C4(C)C")
"5.74 ×10⁻⁶ cm/s"

Here is another compound to look at.
Lookup: Reported Papp B→A, compound "COC(=O)O[C@H]1C[C@H]2OC[C@@]2(OC(C)=O)[C@H]2[C@H](OC(=O)c3ccccc3)[C@]34OC(=O)O[C@H]3[C@H](OC(=O)[C@H](O)[C@@H](NC(=O)N(C)C)c3ccccc3)C(C)=C([C@@H](OC)C(=O)[C@]12C)C4(C)C" : ____
Found: 21.3 ×10⁻⁶ cm/s

###

System: MCF-7 breast cancer cells
assayMethodText: MTT proliferation inhibition, MCF-7
Assay type: cell-based
settings: Homo sapiens, MCF7, read-out: Proliferation inhibition rate, MCF-7 Breast cancer
valueKind: inhibition at 1 µM (%)
Unit % implied. Number only.

>>> recordedresult("CO[C@H]1C(=O)[C@@]2(C)[C@H]([C@H](OC(=O)c3ccccc3)[C@]34OC(=O)O[C@H]3[C@H](OC(=O)[C@H](O)[C@@H](NC(=O)OC(C)(C)C)c3ccccc3)C(C)=C1C4(C)C)[C@]1(OC(C)=O)CO[C@@H]1C[C@@H]2O [PCMI-06]")
86.3
>>> recordedresult("CO[C@H]1C(=O)[C@]2(C)CC[C@H]3OC[C@@]3(OC(C)=O)[C@H]2[C@H](OC(=O)c2ccccc2)[C@]23OC(=O)O[C@H]2[C@H](OC(=O)[C@H](O)[C@@H](NC(=O)OC(C)(C)C)c2ccccc2)C(C)=C1C3(C)C [PCMI-07]")
87.1
>>> recordedresult("CO[C@H]1C(=O)[C@]2(C)[C@@H](OC)C[C@H]3OC[C@@]3(OC(C)=O)[C@H]2[C@H](OC(=O)c2ccccc2)[C@]23OC(=O)O[C@H]2[C@H](OC(=O)[C@H](O)[C@H](CC(C)C)NC(=O)OC(C)(C)C)C(C)=C1C3(C)C [PCMI-05]")
84.9
>>> recordedresult("CO[C@H]1C(=O)[C@]2(C)[C@@H](OC(=O)N(C)C)C[C@H]3OC[C@@]3(OC(C)=O)[C@H]2[C@H](OC(=O)c2ccccc2)[C@]23OC(=O)O[C@H]2[C@H](OC(=O)[C@H](O)[C@@H](NC(=O)OC(C)(C)C)c2ccccn2)C(C)=C1C3(C)C [PCMI-15]")
95.5

Lookup: Reported inhibition at 1 µM, compound CO[C@H]1C(=O)[C@]2(C)[C@@H](OC)C[C@H]3OC[C@@]3(OC(C)=O)[C@H]2[C@H](OC(=O)c2ccccc2)[C@]23OC(=O)O[C@H]2[C@H](OC(=O)[C@H](O)[C@@H](NC(=O)OC(C)(C)C)c2ccccn2)C(C)=C1C3(C)C [PCMI-04] : ____
Found: 101

Lookup: Reported inhibition at 1 µM, compound COC(=O)O[C@H]1C(=O)[C@]2(C)[C@@H](OC)C[C@H]3OC[C@@]3(OC(C)=O)[C@H]2[C@H](OC(=O)c2ccccc2)[C@]23OC(=O)O[C@H]2[C@H](OC(=O)[C@H](O)[C@@H](NC(=O)OC(C)(C)C)c2ccccc2)C(C)=C1C3(C)C [PCMI-12] : ____
Found: 81.8

Lookup: Reported inhibition at 1 µM, compound CO[C@H]1C(=O)[C@]2(C)[C@@H](OC(=O)N(C)C)C[C@H]3OC[C@@]3(OC(C)=O)[C@H]2[C@H](OC(=O)c2ccccc2)[C@]23OC(=O)O[C@H]2[C@H](OC(=O)[C@H](O)[C@@H](NC(=O)OC(C)(C)C)c2ccccc2)C(C)=C1C3(C)C [PCMI-14] : ____
Found: 88.5

Lookup: Reported inhibition at 1 µM, compound CO[C@H]1C(=O)[C@]2(C)[C@@H](OC)C[C@H]3OC[C@@]3(OC(C)=O)[C@H]2[C@H](OC(=O)c2ccccc2)[C@]23OC(=O)O[C@H]2[C@H](OC(=O)[C@H](O)[C@@H](NC(=O)OC(C)(C)C)c2ccccc2)C(C)=C1C3(C)C [PCMI-01] : ____
Found: 96

Data provenance: patent US9890175B2
